Record: pIC50 reported on Human indoleamine 2,3-dioxygenasae (IDO) (Homo sapiens).
Sequence (P14902 whole entry): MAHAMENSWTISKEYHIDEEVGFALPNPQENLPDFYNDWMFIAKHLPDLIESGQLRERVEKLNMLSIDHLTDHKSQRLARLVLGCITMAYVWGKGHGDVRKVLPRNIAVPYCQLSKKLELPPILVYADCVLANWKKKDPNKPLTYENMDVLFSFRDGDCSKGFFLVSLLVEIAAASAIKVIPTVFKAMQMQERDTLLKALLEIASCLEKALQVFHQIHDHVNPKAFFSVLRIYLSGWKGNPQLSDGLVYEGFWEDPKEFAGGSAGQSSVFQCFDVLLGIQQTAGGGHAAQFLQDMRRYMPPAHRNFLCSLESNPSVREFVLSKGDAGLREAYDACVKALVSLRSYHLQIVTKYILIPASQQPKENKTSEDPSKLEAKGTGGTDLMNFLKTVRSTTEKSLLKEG
pIC50: −log10 of the molar value.

Look over these answered cases.
Cc1ccc(C)c(CNC(=NO)c2nonc2CO)c1    > 5.30
Cc1ccc(Cl)cc1CNC(=NO)c1nonc1CO    > 6.00

// next entry
Q: Please report the recorded pIC50 for OCc1nonc1C(=NO)NCc1cc(Br)ccc1F .
A: > 6.00

====

In this section we review reported pIC50 values for a set of compounds.
molecular target: indoleamine 2,3-dioxygenase (IDO) in HeLa cells (Homo sapiens, UniProt P14902); experiment: HeLa cell-based indoleamine 2,3-dioxygenase (IDO)/kynurenine assay; details: IFN-γ 50 ng/mL, 48 hours incubation, kynurenine at 480 nm
Sequence (P14902 whole entry): as above
pIC50: −log10 of the molar value.

OCc1nonc1C(=NO)NCc1cc(Br)ccc1F    > 6.30

Q: Please report the recorded pIC50 for Cc1ccc(Cl)cc1CNC(=NO)c1nonc1CO .
A: > 6.30
